# Tested on: diaphorase (Clostridium kluyveri)
# experimental_details: compounds blocking diaphorase resazurin reduction – biochemical, uHTS, resorufin fluorescence, counter-screen for diaphorase-coupled primary assays, primary screen (AID 1217);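 note: plate controls were DMSO with full reaction for no effect and wells lacking NADH for full effect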
# measurement_conditions: diaphorase resazurin-to-resorufin fluorescence, NADH, 16 min; at 20 µM; bacterial (C. kluyveri) enzyme, not human
The whole screen tested about 190,000 compounds, of which about 1,300 (0.68%) were called active.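 Rule for the calls: active = primary screen inhibition at 20 µM above a set limit (cut at about 50% in these data); inactive = the rest.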 For the sample, actives were picked, then their nearest neighbours and some compounds at random.
Valid outcomes are listed here; reply with one: TRUE for active, FALSE for inactive

Some solved cases for reference:
{"columns": ["compound", "discrete_label"],
 "data": [
  ["O=C1CC(=O)Nc2cc(S(=O)(=O)N3CCN(c4cccc(C(F)(F)F)c4)CC3)ccc2N1", "FALSE"],
  ["Cc1cc(C)c2c(n1)sc1c(=O)n(-c3ccccc3)c(=O)[nH]c12", "TRUE"]
]}

[ask] Would you mind telling me which call this test gave COc1ccc(C(=O)N/N=c2\oc3ccccc3cc2C(N)=O)cc1 ?
[reply] TRUE

[ask] Would you mind telling me which call this test gave O=C(/C=C/c1ccc(F)cc1)NC(=S)NNC(=O)c1cccnc1 ?
[reply] TRUE

[ask] Would you mind telling me which call this test gave Cc1ccc(NC(=O)c2sccc2C)cc1[N+](=O)[O-] ?
[reply] FALSE

====

# Test system: diaphorase (Clostridium kluyveri)
# experimental_details: compounds blocking diaphorase resazurin reduction – biochemical, uHTS, resorufin fluorescence, counter-screen for diaphorase-coupled primary assays, primary screen (AID 1217);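 note: plate controls were DMSO with full reaction for no effect and wells lacking NADH for full effect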
# measurement_conditions: diaphorase resazurin-to-resorufin fluorescence, NADH, 16 min; at 20 µM; hits give high values; bacterial (C. kluyveri) enzyme, not human
Hit rate of the full screen: of about 190,000 compounds, about 1,300 (0.68%) were called active. The entries come from a sample that favours actives as a whole.
measured_attribute: inhibition (%)
Answers are plain numbers, in %.

// solved cases for inhibition follow
{"columns": ["molecule", "tested_on", "value_unit", "endpoint_value"],
 "data": [
  ["CN1C(=O)C(CC(=O)Nc2ccccc2)S/C1=N/c1nccs1 (configuration not stated)", "diaphorase (Clostridium kluyveri)", "%", -11.3],
  ["COC(=O)c1ccc(/C=N\\n2c(C)nnc2C)cc1", "diaphorase (Clostridium kluyveri)", "%", -6.4],
  ["CCOC(=O)N1CCN(C(c2cccnc2)c2ccc3cccnc3c2O)CC1 (configuration not stated)", "diaphorase (Clostridium kluyveri)", "%", 48.3]
]}

Give inhibition for each listed item.
1. COc1cc(/C=N/n2c(C)n[nH]c2=S)ccc1OCc1ccccc1
2. CCc1ccc(N(CC(=O)Nc2sc3c(c2C(=O)OC)CCCC3)S(C)(=O)=O)cc1
3. N#Cc1c(-c2ccc(F)cc2)cc(C2CC2)nc1SCC(=O)c1cccs1
4. CCN(CC)S(=O)(=O)c1cccc(-c2n[nH]c(=S)n2/N=C/c2ccc(C(=O)OC)cc2)c1

[reply]
[32, 28.6, 12.8, 66.5]

Give inhibition for each listed item.
1. C=CCN1C(=O)C(O)(CC(=O)c2ccc(Cl)cc2)c2ccccc21 (configuration not stated)
2. CCCCCC(=O)NC(=S)NNC(=O)c1ccc([N+](=O)[O-])cc1
3. C/C(=C\c1ccco1)C1Nc2cccc3cccc(c23)N1
4. Cc1cc(C)cc(NC(=O)Cn2cnc3c(nnn3Cc3ccc(F)cc3)c2=O)c1
5. CCCCCC(=O)Nc1ccc(C(=O)N/N=C/c2ccc([N+](=O)[O-])cc2)cc1

[reply]
20
54.7
69.5
1.8
4.9

Give inhibition for each listed item.
1. Cc1cccc(C(=O)NNC(=O)c2cccc([N+](=O)[O-])c2)c1
2. O=C(CN1CCOCC1)Nc1c(-c2ccccc2)c2cc(Br)ccc2[nH]c1=O
3. Cc1ccc2[nH]c(=O)c(CN3CCCCC3)c(-c3ccccc3)c2c1
4. O=C(CSc1n[nH]c(-c2cccnc2)n1)Nc1ccnc2ccccc12
5. CC(=O)c1c(O)cc2n(c1=O)-c1ccc(Cl)cc1C2(C)C
6. O=C(CSc1ncn[nH]1)Nc1ccnc2ccccc12

[reply]
10.9
12.8
68.3
54
18.3
-2.2

Give inhibition for each listed item.
1. CC(/C=N/NC(=O)c1ccncc1)=C\c1ccco1
2. CC(C)CC(=O)NC(=S)NNC(=O)c1cccc([N+](=O)[O-])c1
3. COCCN(C(=O)CCC(=O)Nc1nccs1)C(C(=O)NC(C)(C)C)c1ccc(Cl)cc1 (configuration not stated)
4. OCCC1CN(Cc2cccn2-c2nccs2)CCN1CCc1ccccc1 (configuration not stated)

[reply]
1: 5.5; 2: 58.7; 3: 10.1; 4: 18.5

Recorded values, source PubChem BioAssay AID1217.
